Listing of recorded T/C by entry.
Tested on: L1210 leukemia ip in BDF1 mice, survival T/C
Assay: NCI In Vivo Anticancer Drug Screen. Data for tumor model L1210 Leukemia (intraperitoneal) in B6D2F1 (BDF1) mice
Settings: endpoint: mean survival time; dose: 200.0 mg/kg/injection; schedule: Q04DX003 (ip); vehicle: saline; higher = longer survival
Toxic doses and inconclusive results are not listed.

Here are 6 molecules together with their reported answers.
O=[N+]([O-])c1ccc(O)c(I)c1 : 105 % of control
OC1c2cc(Cl)cc(Cl)c2-c2c(Cl)cc(Cl)cc21 : 98 % of control
CCc1c(O)c2ccc3ccccc3c2oc1=O : 94 % of control
c1ccc(C[N+]23CC[N+](Cc4ccccc4)(CC2)CC3)cc1 : 100 % of control
COC(=O)c1c(O)cc(OC)cc1OC : 97 % of control
CCC(=O)OCC1OC(n2cc(F)c(=O)[nH]c2=O)CC1OC(=O)CC (stereo not drawn) : 114 % of control

The molecule listed as CC(C)(CCC(=O)O)[N+](=O)[O-] shows T/C equal to 101 % of control

So for C1=C/C2OC2CCCC/1 (stereo not drawn) , the logged T/C turned out to be 87 % of control

The measured T/C associated with COc1cccc(CO)c1-c1c(CO)cccc1OC reads 97 % of control

Reported T/C of CCCC/C=C/Br : 108 % of control

Record CCN(C)CCC(CNC(=O)CN(CC)CC)(c1cccc2ccccc12)C(C)C (stereo not drawn) , field T/C: 103 % of control
